Entry source: patent US20240400711A1

Assayed system: T1, recombinant extracellular domain of CD38 (human, UniProt P28907 43-300)
T1 construct: also called CD38 extracellular domain; AtaGenix ATMP00140HU
Procedure summary: Biacore SPR
Labelling: kon reported below 300000 M⁻¹ s⁻¹ becomes True; at or above becomes False.

Previously resolved entries follow.
Binder	Assigned class
FTL004-hu-16 (antibody, human IgG1, kappa, V domains shown, also called FLT004-hu-16; FTL004-hum-16) VH: EVQLVQSGAEVKKPGATVKISCKASGYTFTDYNVHWIQQAPGKGLEWIGYFYPRNGATHYAEKFQGRVTLTADTSTDTAYMELSSLRSEDTAVYYCARGETPGTFPYWGQGTLVTVSS VL: EIVLTQSPATLSLSPGERATLSCRASESVDNFGITFMHWYQQKPGQAPRLLIYRASNLESGIPARFSGSGSRTDFTLTISSLEPEDFAVYYCQQSSKDPRTFGQGTKLEIKR	True
FTL004-hu-17 (antibody, human IgG1, kappa, V domains shown, also called FLT004-hu-17; FTL004-hum-17) VH: EVQLVQSGAEVKKPGATVKISCKASGYTFTDYNVHWIQQAPGKGLEWIGYFYPRNGATHYNQKFTGRATLTADTSTDTAYMEISSLRSEDTAVYFCARGETPGTFPYWGQGTLVTVSS VL: DIQLTQSPSSLSASVGDRVTITCRASESVDNFGITFMHWYQQKPGKAPKLLIYRASNLESGVPSRFSGSGSRTDFTLTISSLQPEDFATYYCQQSSKDPRTFGQGTKLEIKR	True

Data request: Is the reported kon for FTL004-hu-3 (antibody, human IgG1, kappa, V domains shown, also called FLT004-hu-3; FTL004-hum-3) VH: QVQLVQSGSELKKPGASVKVSCKASGYTFTDYNVHWIRQAPGQGLEWIGYFYPRNGATHYNQKFTGRAVLSADTSVSTAYLQISSLKAEDTAVYFCARGETPGTFPYWGQGTLVTVSS VL: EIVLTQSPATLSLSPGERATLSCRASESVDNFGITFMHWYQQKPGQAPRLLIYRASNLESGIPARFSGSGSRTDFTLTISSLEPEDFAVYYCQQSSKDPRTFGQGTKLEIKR strictly below 300000 M⁻¹ s⁻¹?
Data returned: False
